assay: Cellular viability qHTS for adrenocortical cancer (ACC) cell line SW-13 (AID 1963989); details: SW-13 ACC cells viability, CellTiter-Glo, 48 h; stronger effect = lower value;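 also: cells grown in serum-free medium with ITS supplement; % is scaled to controls: 0 for no effect and ±100 for the full control effect; nearly all actives have a fitted effect of over 65% in size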
Results filed as inconclusive are left out.
endpoint-name: activity (max response) (%)
Give a bare numeral; the unit % is implied.

// below: answered compounds
compound	activity (max response) (%)
O=C(O)CN(CCN(CC(=O)O)CC(=O)O)CCN(CC(=O)O)CC(=O)O	9.05
CCN(CC)CCOc1ccccc1C(=O)CCc1ccccc1	-19.2

activity (max response) reading for C[C@@H]1CC[C@@]2(OC1)OC1CC3C4CC=C5CC(O)CCC5(C)C4CCC3(C)C1[C@@H]2C (some centres undefined) : -3.87

Lab note: measured activity (max response) of `CC(C)(C)OC(=O)CN(Cc1ccc(Cl)cc1)Cc1ccc([N+](=O)[O-])s1` was -11.1

Query `CCOCCOC(=O)/C=C/c1ccc(OC)cc1` yields activity (max response) of -3.52

For this compound ( `COC(=O)c1cccnc1` ), measured activity (max response) is 5.78

GET /value?item= `C=C[C@@]1(C)CC(=O)[C@]2(O)[C@@]3(C)[C@@H](O)CCC(C)(C)[C@@H]3[C@H](O)[C@H](OC(C)=O)[C@@]2(C)O1` &field=activity (max response) returns 4.29

* * *

assay: Quantitative highthroughput screen to assess conditional lethalithy of NOMO1 cells grown in RPMI1640 with dialyzed fetal bovine serum (RPMI+ds) (AID 1963877); conditions: NOMO1 in RPMI+dialyzed FBS viability, ATP luminescence, 48 h; series mostly up to 45.8 µM; also: nearly all actives have a fitted effect of over 30% in size;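 as to viability: 100% = DMSO control wells and 0% = empty wells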
Records with an inconclusive call do not appear. Activity calls are given as the source filed them. Calls come from the whole dose curve; as a rule, active = well fitted cell-killing curve with a large enough effect; inconclusive = small, poorly fitted or top-dose-only effect; inactive = flat fitted curve, though single readings scatter. Peptide text beside a SMILES is read from it.
Answer with one of the outcomes given here: active, inactive

Examples with answers:
compound	label-value
CC1=C(CC(=O)O)c2cc(F)ccc2C1=Cc1ccc(S(C)=O)cc1 (configuration not stated)	inactive
C[C@@H](NCc1cc2ccccc2[nH]1)c1cccc2ccccc12	inactive
COC(=O)[C@H](Cc1ccccc1)NC(=O)[C@@H](N)CC(=O)O (H-Asp-Phe-OMe)	inactive
CN(C1CCc2c(c3ccccc3n2CC(=O)O)C1)S(=O)(=O)c1ccc(F)cc1 (configuration not stated)	active
CCCN[C@H]1CCc2nc(N)sc2C1	inactive

Request: Please state the recorded outcome for this compound: `CC(C)(C)OC(=O)N[C@H]1CCCCCC=C[C@@H]2C[C@@]2(C(=O)NS(=O)(=O)C2CC2)NC(=O)[C@@H]2C[C@@H](OC(=O)N3Cc4cccc(F)c4C3)CN2C1=O`
Response: inactive

Request: Outcome logged for `Nc1cc(C(Cl)=C(Cl)Cl)c(S(N)(=O)=O)cc1S(N)(=O)=O` in this assay:
Response: active

* * *

experiment: Quantitative highthroughput screen to assess conditional lethalithy of P12 Ichikawa cells grown in Human Plasma-Like Medium with dialyzed fetal bovine serum (HPLM+ds) (AID 1963879); conditions: ATP luminescence, 48 h; viability; series mostly up to 45.8 µM; also: nearly all actives have a fitted effect of over 35% in size
Results filed as inconclusive are left out. Calls of active or inactive are those of the source. The call rests on the fitted dose curve; in most records, active means well fitted cell-killing curve with a large enough effect; inconclusive means small, poorly fitted or top-dose-only effect; inactive means flat fitted curve, though single readings scatter.
Valid outcomes are listed here; reply with one: true (1) (active), false (0) (inactive)

compound	label-value
COC(=O)Nc1nc2ccc(S(=O)c3ccccc3)cc2[nH]1 (stereo not drawn)	true (1)
O=C(c1ccc(F)cc1)C1CCN(CCn2c(=O)[nH]c3ccccc3c2=O)CC1	false (0)

Next up:
Request: Hi, sorry to bother you, what did the test record for `CC(=O)N[C@H]1[C@@H]([C@H](O)[C@H](O)CO)OC(C(=O)O)=C[C@@H]1N=C(N)N` ?
Response: false (0)

* * *

experiment: Viability qHTS for spleen associated tyrosine kinase inhibitor (SYKi) naive MV4-11 cells (AID 1963823); details: MV4-11 AML viability, CellTiter-Glo luminescence, 72 h; series mostly up to 45 µM; also: nearly all actives have a fitted effect of over 40% in size
Inconclusive results are not listed. The source made the active and inactive calls. The call rests on the fitted dose curve; in most records, active means well fitted cell-killing curve with a large enough effect; inconclusive means small, poorly fitted or top-dose-only effect, or effect the other way; inactive means no such curve, though single readings can be large or run the other way.
Assign a class; possible classes are active, inactive

smiles	label-value
Cc1nc2n(c(=O)c1CCN1CCC(c3noc4cc(F)ccc34)CC1)CCCC2	inactive
O=C(O)CCCc1c[nH]c2ccccc12	inactive

Now take the following molecule into account.
Request: Could you check what this test reported for `Clc1ccc(Nc2nc3ccccc3c3nc(C4CCCCC4)[nH]c23)cc1Cl` ?
Response: active

* * *

test: Viability qHTS for spleen associated tyrosine kinase inhibitor (SYKi) naive MV4-11 cells (AID 1963823); conditions: MV4-11 AML viability, CellTiter-Glo luminescence, 72 h; series mostly up to 45 µM; also: nearly all actives have a fitted effect of over 40% in size
Results filed as inconclusive are left out. Calls of active or inactive are those of the source. The call rests on the fitted dose curve; in most records, active means well fitted cell-killing curve with a large enough effect; inconclusive means small, poorly fitted or top-dose-only effect, or effect the other way; inactive means no such curve, though single readings can be large or run the other way.
Could you please pick one outcome from this set? 1.0 (active), 0.0 (inactive)

compound	label-value
COc1cc(C(C)=O)ccc1O[C@@H]1O[C@H](CO[C@@H]2O[C@@H](C)[C@H](O)[C@@H](O)[C@H]2O)[C@@H](O)[C@H](O)[C@H]1O	0.0
COc1cccc2cc3c(c(O[C@@H]4O[C@H](CO[C@@H]5O[C@H](CO)[C@@H](O)[C@H](O)[C@H]5O)[C@@H](O)[C@H](O)[C@H]4O)c12)C(C)OC3=O (stereo partly specified)	0.0

Request: Can you look up the reported call for `COC(=O)C1=CO[C@@H](O[C@@H]2O[C@H](CO)[C@@H](O)[C@H](O)[C@H]2O)[C@@H]2[C@@](C)(O)[C@@H](OC(=O)/C=C/c3ccc(O)cc3)C[C@]12O` for me?
Response: 0.0

Request: Please let me know the test result on file for `Cc1c(C)c2c(c(C)c1OC(=O)CCC(=O)OCCO)CC[C@@](C)(CCC[C@H](C)CCC[C@H](C)CCCC(C)C)O2` .
Response: 0.0

Request: Given O=C(NCC1CCCCN1)c1cc(OCC(F)(F)F)ccc1OCC(F)(F)F (stereo unspecified) , state the outcome it received in this test.
Response: 0.0

Request: Would you mind telling me which call this test gave `C=C1[C@H]2CC[C@H](C(=O)O)[C@@]23CC[C@H](C3)C1(C)C` ?
Response: 0.0

Request: Please indicate how the test categorized `O=C(O)CCc1c(C(=O)O)[nH]c2cc(Cl)cc(Cl)c12` .
Response: 0.0

Request: Could you please tell me the result logged for CC1CCC2(C(=O)O)CCC3(C)C(=CCC4C5(C)CCC(O)C(C)(C(=O)O)C5CCC43C)C2C1(C)O (stereo unspecified) in this assay?
Response: 0.0

Request: Which outcome was entered for the compound `CC(C)C[C@H](CC(=O)NO)C(=O)N[C@@H](Cc1ccc2ccccc2c1)C(=O)N[C@@H](C)C(=O)NCCN` in this test?
Response: 0.0

Request: Hi, sorry to bother you, what did the test record for `CN(C(=O)C(Cl)Cl)c1ccc(OC(=O)c2ccco2)cc1` ?
Response: 0.0

Request: What is the recorded call for this compound in the test? `CN(C)c1nc2c(Br)c(Br)c(Br)c(Br)c2[nH]1`
Response: 1.0

* * *

experiment: Cellular viability qHTS for adrenocortical cancer (ACC) cell line SW-13 (AID 1963989); conditions: SW-13 ACC cells viability, CellTiter-Glo, 48 h; stronger effect = lower value;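 also: cells grown in serum-free medium with ITS supplement; % is scaled to controls: 0 for no effect and ±100 for the full control effect; nearly all actives have a fitted effect of over 65% in size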
Records with an inconclusive call do not appear.
endpoint-name: activity (max response) (%)
API: value field is a number in %; no unit string.

compound	unit-of-measure	activity (max response)
C[C@H](NC(=O)Cc1cc(F)cc(F)c1)C(=O)N[C@H](C(=O)OC(C)(C)C)c1ccccc1	%	3.52
COc1cnc(NS(=O)(=O)c2ccc(N)cc2)nc1	%	10.3
Nc1c2c(nc3c1CCC3)CCCC2	%	-9.88
COC1CC(C(=O)c2ccc3c(N)ncc(-c4ccc(-c5cnn(C)c5)cc4)c3n2)C1 (stereo unspecified)	%	-16.1
Cc1ccc(-n2[nH]c(C)c(N=Nc3cccc(-c4cccc(C(=O)O)c4)c3O)c2=O)cc1C	%	7.78

What the record says about `Cc1cc(O)c2c(c1)C(=O)c1cc(O)cc(O)c1C2=O` : activity (max response) is -8.42

Record summary for CCC(C(=O)NC(=O)NC(C)=O)c1ccccc1 (stereo unspecified) : reported activity (max response) = -1.46

// sample `CCCCNC(=O)NS(=O)(=O)c1ccc(C)cc1` , its activity (max response) was 2.87

The compound listed as `CC(C)(C)CC(C)(C)c1ccc(O)c(-n2nc3ccccc3n2)c1` shows activity (max response) equal to 4.68

For reference, reported activity (max response) for `[O-][n+]1cccc(CO)c1` stands at 9.62

Form: compound = CN1C(CCl)Nc2cc(Cl)c(S(N)(=O)=O)cc2S1(=O)=O (stereo unspecified) ; activity (max response) = -4.04

Looking up `CN(C)CCOC(=O)COc1ccc(Cl)cc1` , I see its activity (max response) listed as 4.85

activity (max response) reported for this compound `C[C@H](CS)C(=O)N1CCC[C@H]1C(=O)O` : -1.14

NC[C@H]1O[C@H](O[C@H]2[C@H](O[C@@H]3O[C@H](CO)[C@@H](O)[C@H]3O)C(O)[C@H](N)C[C@@H]2N)[C@H](N)[C@@H](O)[C@@H]1O (stereo partly specified) has a reported activity (max response) of 8.3

What the record says about `COc1nccnc1NS(=O)(=O)c1ccc(N)cc1` : activity (max response) is 1.63

Lab note: `Cc1n[nH]c(C)c1Cc1sc2c(c1C(=O)N1C[C@H](O)CO1)c(=O)n(C)c(=O)n2CC(C)C` gave activity (max response) of 15

The reported measurements were obtained from PubChem BioAssay (NCATS).
